System under test: T1, FPR1 (UniProt P21462 1-350, limits assumed)
T1 sequence (looked up): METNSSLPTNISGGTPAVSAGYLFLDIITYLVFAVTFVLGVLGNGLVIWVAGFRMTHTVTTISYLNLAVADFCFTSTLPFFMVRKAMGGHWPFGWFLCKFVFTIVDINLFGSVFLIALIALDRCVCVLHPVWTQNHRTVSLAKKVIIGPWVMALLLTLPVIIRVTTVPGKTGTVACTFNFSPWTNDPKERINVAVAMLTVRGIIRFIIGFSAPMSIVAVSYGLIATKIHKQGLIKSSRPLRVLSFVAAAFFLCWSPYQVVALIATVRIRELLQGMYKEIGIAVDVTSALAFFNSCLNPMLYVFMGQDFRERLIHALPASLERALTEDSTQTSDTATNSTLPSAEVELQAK
Method summary: cell-based or functional assay
Recorded endpoint: EC50 for [Ca2+]

Lab book: EC50 for [Ca2+] of KMKYKVM (HELM PEPTIDE1{[CCCC(=O)[*:2]].K.M.K.Y.K.V.[dM].[am]}$$$$V2.0; SMILES CCCC(=O)N[C@@H](CCCCN)C(=O)N[C@@H](CCSC)C(=O)N[C@@H](CCCCN)C(=O)N[C@@H](Cc1ccc(O)cc1)C(=O)N[C@@H](CCCCN)C(=O)N[C@H](C(=O)N[C@H](CCSC)C(N)=O)C(C)C) [peptide of SEQ ID NO 11] noted as > 10 µM

Proceed to the following item.
Lab book: EC50 for [Ca2+] of KMKYKVM (HELM PEPTIDE1{[ac].K.M.K.Y.K.V.[dM].[am]}$$$$V2.0; SMILES CSCC[C@H](NC(=O)[C@H](CCCCN)NC(C)=O)C(=O)N[C@@H](CCCCN)C(=O)N[C@@H](Cc1ccc(O)cc1)C(=O)N[C@@H](CCCCN)C(=O)N[C@H](C(=O)N[C@H](CCSC)C(N)=O)C(C)C) [peptide of SEQ ID NO 10] noted as > 10 µM

Ref: patent US20250361268A1
